meta.source: PubChem BioAssay (NCI)

# Test system: NCI-H522 lung
# TEST_DETAILS: NCI tumour cell line growth inhibition, 48 h
# TGI values compiled below

COMPOUND	TGI
N#CC(C(=O)O)C(c1c(Cl)cccc1Cl)C(C#N)C(=O)O (configuration not stated)	> 100 µM
CCC1(N)C(=O)OCc2c1cc1n(c2=O)Cc2cc3ccccc3nc2-1 (configuration not stated)	> 100 µM
CC(C)Cc1ccc(C(C)/C=C2\CCC(CN3CCCCC3)C2=O)cc1 (configuration not stated)	2.9 µM
Cn1cc2ccccc2c1-c1nc(F)nc(Nc2ccc(N)cc2)n1	28.9 µM
N/C(=N\N=C\c1ccc(O)c(O)c1)NO	> 100 µM
CCCc1n(Cc2ccc3ccccc3n2)cc[n+]1Cc1ccc2ccccc2c1	1.13 µM
COc1cc2c3c(c1OC)C(=O)C(=O)C1=C3N(CCC1)CC2	72.2 µM

----------
# System: UACC-62 melanoma
# TEST_DETAILS: NCI tumour cell line growth inhibition, 48 h

COMPOUND	COMPARATOR	TGI [µM]
CC(C)c1cc(C(=O)[O-])c(O)c(C(C)C)c1.CC(C)c1cc(C(=O)[O-])c(O)c(C(C)C)c1.CC(C)c1cc(C(=O)[O-])c(O)c(C(C)C)c1.CC(C)c1cc(C(=O)[O-])c(O)c(C(C)C)c1.CC(C)c1cc(C(=O)[O-])c(O)c(C(C)C)c1.CC(C)c1cc(C(=O)[O-])c(O)c(C(C)C)c1.[Cu+2].[Mn+2].[Mn+2]	=	34.4
CCCCC(N)CSSCC(N)CCCC (stereo unspecified)	=	41.1
NC(N)=NC(N)=Nc1ccc(S(N)(=O)=O)cc1	>	100
O=C1c2ccccc2-c2c1c1ccc([N+](=O)[O-])cc1c(=O)n2CCCn1ccnc1	=	0.0348
NS(=O)(=O)c1ccc(N2C(=O)C(=O)N(c3ccccc3)C2=S)cc1	>	100
COC(=O)CCCNC(=O)C(=O)c1c(O)c(O)c(C(C)C)c2cc(C)c(-c3c(C)cc4c(C(C)C)c(O)c(O)c(C(=O)C(=O)NCCCC(=O)OC)c4c3O)c(O)c12	=	2.07
C[C@@]1(O)CCC[C@H]1n1c(=O)c(C(F)F)cc2cnc(NC3CCN(S(C)(=O)=O)CC3)nc21	=	3.31
COC(=O)C1SC[C@H]2C(=O)N(c3ccccc3)C(=O)N12 (stereo partly specified)	>	100
COC1C(OC(C)=O)CC(=O)OC(C)C/C=C/C=C\C(O)C(C)CC(CC=O)C1OC1OC(C)C(OC2CC(C)(O)C(OC(=O)CC(C)C)C(C)O2)C(N(C)C)C1O (stereo unspecified)	>	100
COc1ccc(C(=O)c2cc(C)c(OC)c(C)c2)c(OC)c1N(C(=O)CCl)C(=O)CCl	=	23.5
C=CCOC1OC(CS(=O)(=O)O)C(OC(C)=O)C(OC(C)=O)C1OC(C)=O (stereo unspecified)	>	100
CNC(=S)N(C1CCCCC1)C1CCCCC1	>	100
COC(=O)[C@H](Cc1cn(C)cn1)NC(=O)[C@@H](NC(=O)Nc1cc(C(F)(F)F)cc(C(F)(F)F)c1)C(C)(C)C	>	10
CC(C)(C)C(=O)CC(=O)C(F)(F)C(F)(F)C(F)(F)F.[Ag]	=	32
CC(C)(C)OC(=O)N1CCC(NC(=O)NC2CCN(C(=O)OC(C)(C)C)CC2)CC1	>	100
COc1ccc2c(c1)OC1c3ccccc3OCC21 (stereo unspecified)	>	100
Fc1ccc2c(c1)cc1ccc3cccc4ccc2c1c34	>	100
COc1cc(/C=C2\Cc3ccccc3C2=O)cc(OC)c1OC	>	100
COc1cccc(NC(=O)c2ccc(NC3=C(Cl)C(=O)N(Cc4ccccc4)C3=O)cc2)c1	=	28.8
CS(=O)(=O)CCC(N)P(=O)(O)O (stereo unspecified)	>	100
COc1ccc(/C=C2\CCc3ccccc3C2=O)cc1OC	=	34.1
